Let's look at some molecules and their measured inhibition.
Experiment: inhibitors of HIV fusion peptide binding, primary screen, biochemical, uHTS, fluorescence dequenching (AID 1986)
Details: cell-free peptide binding, 30 min, measured here: repeat confirmation average inhibition, at 18.6 µM, stronger effect = higher value
The campaign covered roughly 290,000 compounds. About 890 (0.31%) were called active. The entries come from a sample that favours actives as a whole.
Give the number; % is assumed, so skip it.

Worked cases, answers included:
INSERT INTO assay_data (substance_smiles, measured_parameter, unit_abbrev, reported_result) VALUES
  ('COc1cccc(N=C2NC(=O)/C(=C/c3cc([N+](=O)[O-])ccc3O)S2)c1', 'inhibition', '%', 33),
  ('O=C(CCCN1C(=O)/C(=C/c2ccco2)SC1=S)Nc1ccccc1C(=O)O', 'inhibition', '%', 29.8),
  ('O=C(O)CCCN1C(=O)/C(=C/C=C/c2ccco2)SC1=S', 'inhibition', '%', 27.4),
  ('O=C(CCCN1C(=O)/C(=C\c2ccco2)SC1=S)Nc1ccc2ccccc2c1', 'inhibition', '%', 3),
  ('O=C(N/N=C/c1cc(Br)cc(Br)c1O)c1ccncc1', 'inhibition', '%', 59.2),
  ('Cc1cc(/C=C2\SC(=S)N(Cc3ccco3)C2=O)c(C)n1-c1cccnc1', 'inhibition', '%', 94.4),
  ('O=C1NC(=Nc2ccccc2Cl)S/C1=C\c1cc([N+](=O)[O-])ccc1O', 'inhibition', '%', 124),
  ('O=C(CCCN1C(=O)/C(=C/c2ccco2)SC1=S)Nc1cccc(C(=O)O)c1', 'inhibition', '%', 12.3),
  ('CC(=O)N1C(=O)/C(=C2\SC(=S)N(NS(=O)(=O)c3ccc(C)cc3)C2=O)c2ccccc21', 'inhibition', '%', -0.3),
  ('COc1ccccc1-c1ccc(/C=C2\C=CC(=O)O2)o1', 'inhibition', '%', 59);

Qu. Identify measured inhibition associated with CC(=O)Nc1sc(/C(C#N)=C\c2cccc(Cl)c2)nc1-c1ccc(C)cc1
Ans. 75.8

Qu. Identify measured inhibition associated with CCOC(=O)c1c(-c2ccc(C)cc2)csc1NC(=O)/C(C#N)=C/c1ccc(O)c(OC)c1
Ans. 7.7

====

Assay: inhibitors of HIV fusion peptide binding, primary screen, biochemical, uHTS, fluorescence dequenching (AID 1986)
Details: cell-free peptide binding, 30 min, at 20 µM, stronger effect = higher value
Among all 290,000 compounds or so, about 890 (0.31%) were called active. Shown is part of a subset that was picked to be rich in actives.
Let's look at some molecules and their measured inhibition.

INSERT INTO results (molecule, reported_result) VALUES
  ('CCOc1cc(/C=C2\C(=O)ON=C2c2ccccc2)ccc1OC', '0.3% (inactive)'),
  ('O=C(NCc1cccs1)C1CC(=O)N(c2ccccc2)C1 (centres undefined)', '-2.2% (inactive)'),
  ('Cc1cc(-c2ccccc2)n2ncnc2n1', '0.4% (inactive)');

Qu. Identify measured inhibition associated with COc1cc(/C=C2\C(=O)ON=C2c2ccccc2)cc(Cl)c1O
Ans. 45.2% (inactive)

Qu. Identify measured inhibition associated with Cc1ccc(-c2[nH]c(-c3ccc(C(=O)O)cc3)nc2-c2ccccc2)cc1
Ans. 61.6% (inactive)

====

Test: inhibitors of HIV fusion peptide binding, primary screen, biochemical, uHTS, fluorescence dequenching (AID 1986)
Conditions: cell-free peptide binding, 30 min, at 20 µM
Hit rate of the full screen: of about 290,000 compounds, about 890 (0.31%) were called active. Rule as the data show it: active = inhibition mostly above about 52% (no sharp cut-off); inactive = mostly below about 76%. This is one part of a sample in which actives are shown more often than they occur.
Result category, one only: 1.0 for active, 0.0 for inactive

Below, 6 molecules whose answers are already recorded.
INSERT INTO measurements (molecule, label_value) VALUES
  ('COC(=O)CCCC1=CC2=CC(=O)C(C)(OC(=O)C3CCCC3)C(=O)C2=CO1 (stereo not given)', 0.0),
  ('CS(=O)(=O)C1=NSC2=NC(=O)/C(=C\c3ccc(OC(=O)c4ccco4)cc3)C(=N)N21', 0.0),
  ('Cc1ccc(/C=C2/NC(=O)N(Cc3ccccc3F)C2=O)s1', 1.0),
  ('NC(=O)NCc1cccc(Cl)c1', 0.0),
  ('CCCCC1=CC2=CC(=O)C(C)(OC(=O)CCc3ccccc3)C(=O)C2=CO1 (stereo not given)', 0.0),
  ('C=CCN1C(=O)/C(=C/c2ccccc2)S/C1=N/c1nccs1', 0.0);

Qu. Name the outcome recorded for Cc1ccc(/C=C2/NC(=O)N(Cc3ccccc3)C2=O)s1 in the assay.
Ans. 0.0

Qu. Name the outcome recorded for Nc1ccc2c3c(cccc13)C(=O)N(c1ccccc1)C2=O in the assay.
Ans. 0.0

Qu. Name the outcome recorded for Cc1c(C(=O)N2CCC(C)CC2)cccc1[N+](=O)[O-] in the assay.
Ans. 0.0

Qu. Name the outcome recorded for CN(C)c1cccc2c(C=C(C#N)C#N)ccc(N(C)C)c12 in the assay.
Ans. 1.0

Qu. Name the outcome recorded for CCN(CC)c1nc2n(c(=O)n1)CCN2CC in the assay.
Ans. 0.0

Qu. Name the outcome recorded for O=C(O)c1ccc2c3c(cccc13)C(=O)N(c1ccccc1)C2=O in the assay.
Ans. 0.0

====

Assay: inhibitors of HIV fusion peptide binding, primary screen, biochemical, uHTS, fluorescence dequenching (AID 1986)
Settings: cell-free peptide binding, 30 min, at 20 µM, stronger effect = higher value
Hit rate of the full screen: of about 290,000 compounds, about 890 (0.31%) were called active. Shown is part of a subset that was picked to be rich in actives.
Let's look at some compounds and their measured inhibition.

Worked cases, answers included:
INSERT INTO measurements (compound, measured_parameter, reported_result) VALUES
  ('CCOC(=O)C(NC(C)=O)(Nc1ccc(S(=O)(=O)Nc2cc(C)on2)cc1)C(F)(F)F (stereo not drawn)', 'inhibition', '3.7% (inactive)'),
  ('O=C(OCc1ccccc1)c1cnc(Cl)c(Cl)c1', 'inhibition', '-1.7% (inactive)');

Qu. Identify measured inhibition associated with FC(F)(F)c1nc2cc3nc4ccccc4[nH]c3cc2n1
Ans. 3.4% (inactive)

====

Let's look at some molecules and their measured inhibition.
Test: inhibitors of HIV fusion peptide binding, primary screen, biochemical, uHTS, fluorescence dequenching (AID 1986)
Conditions: cell-free peptide binding, 30 min, at 20 µM, stronger effect = higher value
Among all 290,000 compounds or so, about 890 (0.31%) were called active. The entries come from a sample that favours actives as a whole.
Give the number; % is assumed, so skip it.

INSERT INTO results (substance_smiles, unit_abbrev, reported_result) VALUES
  ('Cc1cccc(N=Nc2c(O)[nH]c3ccc(F)cc23)c1', '%', 95),
  ('COc1ccc(CNc2nc3nc(-c4ccccc4)cc(=O)n3[nH]2)cc1OC', '%', 0.4);

Proceeding to the next molecule to report its inhibition.
Qu. Identify measured inhibition associated with CCN(CC)c1ccc(/C=C(\C#N)c2ccccn2)cc1
Ans. 19.5

====

Experiment: inhibitors of HIV fusion peptide binding, primary screen, biochemical, uHTS, fluorescence dequenching (AID 1986)
Conditions: cell-free peptide binding, 30 min, at 20 µM, stronger effect = higher value
Among all 290,000 compounds or so, about 890 (0.31%) were called active. This excerpt belongs to a sample that is enriched for actives.
# label = t if inhibition >= 20% else f

Below, 8 compounds whose answers are already recorded.
INSERT INTO measurements (compound, label_value) VALUES
  ('O=C(N/N=C\c1ccc2c(c1)OCO2)c1ccc(Cn2cc(Br)c([N+](=O)[O-])n2)o1', 'f'),
  ('CCOc1ccc2nc(NC(=O)CSc3ccccc3)sc2c1', 'f'),
  ('O=C(Nc1nnc(C2CC2)s1)C1COc2ccccc2O1 (stereo unspecified)', 'f'),
  ('O=C(Nc1nc(-c2ccccc2)cs1)c1ccccc1F', 'f'),
  ('COc1ccc(OC)c(/C=C2\SC(=S)N(Cc3cccnc3)C2=O)c1', 't'),
  ('Cc1ccc2c(nc3s/c(=C\c4ccc(-c5ccccc5C(=O)O)o4)c(=O)n32)c1C', 't'),
  ('COc1cc(/C=C2/SC(=S)N(Cc3ccccc3)C2=O)cc(Cl)c1O', 't'),
  ('O=C(Nc1nc(-c2ccccc2)cs1)c1ccccc1NS(=O)(=O)c1ccc(F)cc1', 't');

Let's switch to this compound now.
Qu. Would you say CCOc1cc2c(cc1/C=C/C(=O)O)OC(C)C2 (stereo unspecified) shows inhibition at minimum 20%?
Ans. f

====

Assay: inhibitors of HIV fusion peptide binding, primary screen, biochemical, uHTS, fluorescence dequenching (AID 1986)
Settings: cell-free peptide binding, 30 min, at 20 µM
The whole screen tested about 290,000 compounds, of which about 890 (0.31%) were called active. Rule as the data show it: active = inhibition mostly above about 52% (no sharp cut-off); inactive = mostly below about 76%. The entries come from a sample that favours actives as a whole.
Result category, one only: yes (active), no (inactive)

Below, 5 compounds whose answers are already recorded.
INSERT INTO measurements (compound, label_value) VALUES
  ('Oc1cccc(C=Nc2cccc3ccccc23)c1O', 'no'),
  ('CCCCCOc1ccc(/C=c2\sc3nc(=O)c(-c4ccccc4)nn3c2=O)cc1OC', 'yes'),
  ('CC1=C(C#N)C(=O)N(C2CCS(=O)(=O)C2)C(=O)/C1=C\c1ccc(C)o1 (stereo unspecified)', 'yes'),
  ('COC(=O)c1nn(-c2ccccc2)c(Sc2ccc(OC)cc2)c1/C=N/O', 'no'),
  ('O=C(O)c1ccc(Cl)c2c1C1C=CCC1C(c1ccccn1)N2 (stereo unspecified)', 'no');

Qu. Name the outcome recorded for O=C(NCC1CCCO1)C1CCN(C2CCN(Cc3ccco3)CC2)CC1 (stereo unspecified) in the assay.
Ans. no

Qu. Name the outcome recorded for Cc1cc[n+](-c2[nH]c(=O)sc2/C=N/NC([S-])=Nc2ccccc2)cc1C in the assay.
Ans. no

Qu. Name the outcome recorded for CCCCN(C)CCNC(=O)CN1C(=O)CSc2ccc(S(=O)(=O)N3CCOCC3)cc21 in the assay.
Ans. no

Qu. Name the outcome recorded for CCCOc1ccc2c(CC)cc(=O)oc2c1C in the assay.
Ans. no

Qu. Name the outcome recorded for CCCN(CCC)c1nc2c(C)cccn2c(=O)c1/C=C1/SC(=S)N(Cc2ccco2)C1=O in the assay.
Ans. no

Qu. Name the outcome recorded for CCN(CC)c1ccc(/C=C2/C(=O)ON=C2C)cc1 in the assay.
Ans. yes

Qu. Name the outcome recorded for CCN1CCN(c2c(/C=C3\SC(=S)N(Cc4ccco4)C3=O)c(C)c(C#N)c(=O)n2C)CC1 in the assay.
Ans. yes

Qu. Name the outcome recorded for CN1C(=O)S/C(=C/c2cccn2-c2cccc(C(=O)O)c2)C1=O in the assay.
Ans. no

Qu. Name the outcome recorded for COc1ccc(OC)c(C(=O)c2c(C)oc3cc([N+](=O)[O-])c(O)c([N+](=O)[O-])c23)c1 in the assay.
Ans. no

Qu. Name the outcome recorded for Cc1ccccc1N=Cc1cccc(O)c1O in the assay.
Ans. yes
